Just for reference, patent US20240101531A1 is where these values come from.

Can you tell me pEC50 for the items I'm about to list?
Molecular target: human KV7.2/KV7.3 (Homo sapiens (Human), UniProt O43525+O43526)
Assay: Potassium flux assay (IPG-2 AM dye)
Settings: TREX HEK 293 or HEK 293 cells expressing human KV7.2/KV7.3; arithmetic mean values
pEC50: −log10 of the molar value. Counter-ions that a name gives are not always drawn.

Which pEC50 value is on record for Clc1ccc(Nc2nccc3cc(OC[C@H]4CCCN4Cc4ccccc4)ccc23)cn1 [Example 280] ?
5.00 to 6.00

Quick check: pEC50 of N#CC1(COc2ccc3c(Nc4cnc(Cl)nc4)nccc3c2)CCC1 [Example 369] ?
> 6.00

GET /values?readout=pEC50&item= Cn1ncc(COc2ccc3c(Nc4ccc(Cl)nc4)nccc3c2)c1Cl [Example 291]
5.00 to 6.00

Reported pEC50, compound FC1(F)CC(Oc2ccc3c(Nc4ccc(Cl)nc4)nccc3c2)C1 [Example 412] : ____
5.00 to 6.00

Look at this compound and give its reported pEC50. Cc1cc(COc2ccc3c(Nc4ccc(Cl)nc4)nccc3c2)n[nH]1 [Example 392]
5.00 to 6.00

I'd like to know its pEC50. The compound in question is NC(=O)C1(COc2ccc3c(Nc4cnc(Cl)nc4)nccc3c2)CC1 [Example 361]
> 6.00

Item CC(C)C(C)(N)COc1ccc2c(Nc3ccc(Cl)nc3)nccc2c1 (stereo not drawn) [Example 176, hydrochloride] has what recorded pEC50?
4.52 to 5.00

Requested read-out: pEC50. Entry: CC(C)(C)OC(=O)N[C@H]1CCC[C@@H](Oc2ccc3c(Nc4cnc(Cl)nc4)nccc3c2)C1 [Example 356]
> 6.00

Any idea what its pEC50 is? The compound is N#C[C@@H]1CCC[C@H](Oc2ccc3c(Nc4ccc(Cl)nc4)nccc3c2)C1 [Example 343]
5.00 to 6.00

Tell me the measured pEC50 of N#CC1(COc2cnc3c(Nc4cnc(Cl)nc4)nccc3c2)CC1 [Example 254] , please.
> 6.00

Fill in the blank: the reported pEC50 of Cc1c(COc2ccc3c(Nc4cnc(Cl)nc4)nccc3c2)cnn1C [Example 352] is ____.
> 6.00

Entry under review: F[C@@H]1C[C@H]1COc1ccc2c(Nc3ccc(Cl)nc3)nccc2c1 [Example 413] . Reported pEC50?
5.00 to 6.00

Tell me the measured pEC50 of FC(F)n1cc(COc2ccc3c(Nc4ccc(Cl)nc4)nccc3c2)cn1 [Example 279] , please.
> 6.00

// lookup pEC50 for Clc1ccc(Nc2nccc3cc(OCc4cnsc4)ccc23)cn1 [Example 301]
> 6.00

# get_value(readout='pEC50', item= COC1(COc2ccc3c(Nc4ccc(Cl)nc4)nccc3c2)COC1 [Example 220] )
> 6.00

* * *

Target: human KV7.2/KV7.3 (Homo sapiens (Human), UniProt O43525+O43526)
Assay: Potassium flux assay (IPG-2 AM dye)
Conditions: TREX HEK 293 or HEK 293 cells expressing human KV7.2/KV7.3; arithmetic mean values
pEC50: −log10 of the molar value.
value-kind: pEC50

Which measured pEC50 value corresponds to C[C@]1(COc2ccc3c(Nc4ccc(Cl)nc4)nccc3c2)CCCO1 ?
5.00 to 6.00

Reported pEC50, molecule Clc1ccc(Nc2nccc3cc(OCCC4CC4)ccc23)cn1 : ____
4.52 to 5.00

I am curious: what pEC50 value has been reported for Clc1ccc(Nc2nccc3cc(OCC4CCOC4)ccc23)cn1 (stereo not drawn) ?
> 6.00

Please look up its pEC50: C[C@H]1COCCN1CCOc1ccc2c(Nc3ccc(Cl)nc3)nccc2c1
5.00 to 6.00

I have this molecule here, CC1(C)CCC(COc2ccc3c(Nc4cnc(Cl)nc4)nccc3c2)O1 (stereo not drawn) , and I need its recorded pEC50.
5.00 to 6.00

What value of pEC50 has been recorded for this entry: CC(C)C1(COc2ccc3c(Nc4cnc(Cl)nc4)nccc3c2)COC1
> 6.00

Look at this molecule and give its reported pEC50. N#CC1(COc2ccc3c(Nc4ccc(Cl)nc4)nccc3c2)CCOC1 (stereo in doubt) [Example 125]
> 6.00

If you can, please state the reported pEC50 value of CC1CN(CCOc2ccc3c(Nc4ccc(Cl)nc4)nccc3c2)CCO1 (stereo not drawn) .
5.00 to 6.00

Reported pEC50 for Clc1ccc(Nc2nccc3cc(OCC4CC5(COC5)C4)ccc23)cn1 : what is it?
5.00 to 6.00

Endpoint output: pEC50 of Cc1nnc(COc2ccc3c(Nc4ccc(Cl)nc4)nccc3c2)o1 . Value?
5.00 to 6.00

Please report the recorded pEC50 for O=c1cc[nH]n1CCOc1ccc2c(Nc3ccc(Cl)nc3)nccc2c1 .
5.00 to 6.00

Please report the recorded pEC50 for O[C@@H]1CCC[C@@H](Oc2ccc3c(Nc4ccc(Cl)nc4)nccc3c2)C1 (relative stereo) .
> 6.00

Which pEC50 value belongs to FC1(COc2ccc3c(Nc4cnc(Cl)nc4)nccc3c2)COC1 ?
> 6.00

For Cc1ncc(Nc2nccc3cc(OCc4ccon4)ccc23)cn1 , what is its reported pEC50?
5.00 to 6.00

// lookup pEC50 for Cc1ccc(Nc2nccc3cc(OCc4ccncc4)ccc23)cn1
5.00 to 6.00

* * *

Target: human KV7.2/KV7.3 (Homo sapiens (Human), UniProt O43525+O43526)
Assay: Potassium flux assay (IPG-2 AM dye)
Conditions: TREX HEK 293 or HEK 293 cells expressing human KV7.2/KV7.3; arithmetic mean values
Provide the recorded EC50 for the entries that follow.

EC50 for CC(=O)N1CCC[C@@H](Oc2ccc3c(Nc4ccc(Cl)nc4)nccc3c2)C1 [Example 123] ?
< 1 µM

Quick one: EC50 for Clc1ccc(Nc2nccc3cc(OCC4CCCO4)ccc23)cn1 (stereo not shown) [Example 217] ?
1 to 10 µM

Which EC50 reading was recorded for the compound CC(C)C1(COc2ccc3c(Nc4ccc(Cl)nc4)nccc3c2)COC1 [Example 152] ?
< 1 µM

Which EC50 reading was recorded for the compound CC(=O)N1CC(COc2ccc3c(Nc4ccc(Cl)nc4)nccc3c2)C1 [Example 309] ?
1 to 10 µM

* * *

Target: human KV7.2/KV7.3 (Homo sapiens (Human), UniProt O43525+O43526)
Assay: Potassium flux assay (IPG-2 AM dye)
Details: TREX HEK 293 or HEK 293 cells expressing human KV7.2/KV7.3; arithmetic mean values
Counter-ions that a name gives are not always drawn.
I'd be grateful if you could share measured EC50 for these entries.

I have this compound here, FC1(F)CCCC(Oc2ccc3c(Nc4ccc(Cl)nc4)nccc3c2)C1 (stereo not shown) , and I need its recorded EC50.
1000 to 10000 nM

Suppose we examine the compound Clc1ccc(Nc2nccc3cc(OCCCCCn4cncn4)ccc23)cn1 ; what EC50 value has been reported?
1000 to 10000 nM

# query: EC50 of entry N=[S@@]1(=O)CCC[C@@H](COc2ccc3c(Nc4cnc(Cl)nc4)nccc3c2)C1 (relative stereo)
< 1000 nM

Suppose we examine the compound Cc1ncc(Nc2nccc3cc(OCc4cnoc4)ccc23)cn1 ; what EC50 value has been reported?
< 1000 nM

Requested read-out: EC50. Entry: N#CC1(COc2ccc3c(Nc4ccc(Cl)nc4)nccc3c2)CCC1
< 1000 nM

Would you mind telling me what EC50 value was observed for Clc1ccc(Nc2nccc3cc(OCC4CC5(CCO5)C4)ccc23)cn1 (stereo not shown) ?
< 1000 nM

Suppose we examine the compound Clc1ccc(Nc2nccc3cc(OCC45CCCN4CCC5)ccc23)cn1 ; what EC50 value has been reported?
≥ 30000 nM

Report EC50 for COc1cnc(Nc2ccc(Cl)nc2)c2[nH]ccc12 [Example 15, formate] please.
1000 to 10000 nM

Query: EC50; subject: CS(=O)(CC1COC1)=Nc1ccc2c(Nc3ccc(Cl)nc3)nccc2c1 (stereo not shown)
1000 to 10000 nM

Look up EC50: CCOC(=O)C1(COc2ccc3c(Nc4ccc(Cl)nc4)nccc3c2)CC1
1000 to 10000 nM

EC50 lookup needed for CC(=O)N[C@H]1CCC[C@@H](Oc2ccc3c(Nc4cnc(Cl)nc4)nccc3c2)C1 , thanks.
< 1000 nM

Request the reported EC50 associated with CC(Cc1cnn(C)c1)Oc1ccc2c(Nc3ccc(Cl)nc3)nccc2c1 (stereo not shown)
1000 to 10000 nM

Find the recorded EC50 belonging to CC1(COc2ccc3c(Nc4ccc(Cl)nc4)nccc3c2)COC1 and report it.
< 1000 nM

* * *

Target: human KV7.2/KV7.3 (Homo sapiens (Human), UniProt O43525+O43526)
Test: Potassium flux assay (IPG-2 AM dye)
Conditions: TREX HEK 293 or HEK 293 cells expressing human KV7.2/KV7.3; arithmetic mean values
Counter-ions that a name gives are not always drawn.
Kindly state EC50 for each of the entries shown.

Entry COC1(COc2ccc3c(Nc4ccc(Cl)nc4)nccc3c2)CCC1 [Example 288] has what EC50?
< 1 µM

Quick one: EC50 for Cc1ncc(Nc2nccc3c(F)c(OCC4CC4)ccc23)cn1 [Example 233] ?
10 to 30 µM

Which EC50 is listed for Cc1cc2ccccc2c(Nc2ccc(Cl)nc2)n1 [Example 398] ?
≥ 30 µM

Quick one: EC50 for Clc1ccc(Nc2nccc3cc(OCc4cnn5c4CCC5)ccc23)cn1 [Example 281] ?
10 to 30 µM

Requested field: EC50. Item: Clc1ccc(Nc2nccc3cc(OCC4CC4)cnc23)cn1 [Example 255]
1 to 10 µM

State the recorded EC50 for this entry: FC(F)(F)C1(COc2ccc3c(Nc4ccc(Cl)nc4)nccc3c2)CC1 [Example 231, formate]
< 1 µM

Would you kindly share the measured EC50 for OCC1(COc2ccc3c(Nc4ccc(Cl)nc4)nccc3c2)COC1 [Example 329] ?
1 to 10 µM
